- ASSAY_SYSTEM: VAV1 (Homo sapiens, UniProt P15498+Q96SW2)
- Construct: A heterozygous VAV1 C-terminal HiBiT knock-in pool was generated at Monte Rosa Therapeutics from a clonal Jurkat cell; endogenous in cells; host or cells: Jurkat clone stably expressing LgBiT, homozygous GSPT1-G575N; heterozygous VAV1-HiBiT knock-in pool
- EXPERIMENT_NOTES: VAV1 degradation activity, VAV1-HiBiT knock-in Jurkat luminescence assay (Example A, Table 1)
- Assay type: cell-based
- EXPERIMENTAL_PARAMETERS: Jurkat, VAV1-HiBiT knock-in Jurkat cells, luminescence read at 6 and 24 hours; read-out: VAV1 Dmax %
Task for the reader: assign each of the following compounds its reported Dmax.
Provide only the numeric value, understood in %.

O=C1CCC(c2cccc(-c3ccc(N4CC(C(F)(F)F)OCC4=O)cc3)c2Cl)C(=O)N1 (stereo not drawn) [Compound 306] on VAV1 (Homo sapiens, UniProt P15498+Q96SW2) gives Dmax = 89.1

CC(c1ccc(-c2cccc(C3CCC(=O)NC3=O)c2Cl)cc1)n1ccccc1=O (stereo not drawn) [Compound 174] on VAV1 (Homo sapiens, UniProt P15498+Q96SW2) gives Dmax = 92.2

CN1CC2(CCC(=O)N2c2ccc(-c3cccc(C4CCC(=O)NC4=O)c3Cl)cc2)C1 (stereo not drawn) [Compound 371] on VAV1 (Homo sapiens, UniProt P15498+Q96SW2) gives Dmax = 37.8

O=C1CCC(c2cccc(-c3ccc(-n4ccccc4=O)nc3)c2Cl)C(=O)N1 (stereo not drawn) [Compound 477] on VAV1 (Homo sapiens, UniProt P15498+Q96SW2) gives Dmax = 88.7

O=C1CCC(c2cccc(-c3ccc(CN4C(=O)CCC45CC5)cc3)c2Cl)C(=O)N1 (stereo not drawn) [Compound 296] on VAV1 (Homo sapiens, UniProt P15498+Q96SW2) gives Dmax = 93.8

COc1cc(-c2cccc(C3CCC(=O)NC3=O)c2Cl)ccc1C (stereo not drawn) [Compound 132] on VAV1 (Homo sapiens, UniProt P15498+Q96SW2) gives Dmax = 84.5

Cn1ccc(C(=O)Nc2ccc(-c3cccc(C4CCC(=O)NC4=O)c3Cl)cc2)n1 (stereo not drawn) [Compound 207] on VAV1 (Homo sapiens, UniProt P15498+Q96SW2) gives Dmax = 88.7

O=C1CCC(c2cccc(-c3ccc(Cn4ccc(F)cc4=O)cc3)c2Cl)C(=O)N1 (stereo not drawn) [Compound 170] on VAV1 (Homo sapiens, UniProt P15498+Q96SW2) gives Dmax = 94.2

O=C1CCC(c2cccc(-c3ccc(N4C(=O)CCCC45COC5)cc3)c2Cl)C(=O)N1 (stereo not drawn) [Compound 407] on VAV1 (Homo sapiens, UniProt P15498+Q96SW2) gives Dmax = 95.5

Cc1cnc(Cc2ccc(-c3cccc(C4CCC(=O)NC4=O)c3Cl)cc2)nc1 (stereo not drawn) [Compound 420] on VAV1 (Homo sapiens, UniProt P15498+Q96SW2) gives Dmax = 98.8

CN1CCCN(c2ncc(-c3cccc(C4CCC(=O)NC4=O)c3Cl)cc2F)C1=O (stereo not drawn) [Compound 382] on VAV1 (Homo sapiens, UniProt P15498+Q96SW2) gives Dmax = 76

O=C1CCC(c2cccc(-c3ccc(CN4CC(C(F)(F)F)OCC4=O)cc3)c2Cl)C(=O)N1 (stereo not drawn) [Compound 258] on VAV1 (Homo sapiens, UniProt P15498+Q96SW2) gives Dmax = 94.5

Cc1nn(C)c2c1N(c1ccc(-c3cccc(C4CCC(=O)NC4=O)c3Cl)cc1)C(=O)CO2 (stereo not drawn) [Compound 333] on VAV1 (Homo sapiens, UniProt P15498+Q96SW2) gives Dmax = 98.2

O=C1CCC(c2cccc(-c3ccc(N4C(=O)CCCC45CC5)c(F)c3)c2Cl)C(=O)N1 (stereo not drawn) [Compound 350] on VAV1 (Homo sapiens, UniProt P15498+Q96SW2) gives Dmax = 97.3

O=C1CCC(c2cccc(-c3ccc(CN4CCN5CCCC5C4=O)cc3)c2Cl)C(=O)N1 (stereo not drawn) [Compound 261] on VAV1 (Homo sapiens, UniProt P15498+Q96SW2) gives Dmax = 84.8

O=C1CCC(c2cccc(-c3ccc(CN4CC5CCCC5C4=O)cc3)c2Cl)C(=O)N1 (stereo not drawn) [Compound 282] on VAV1 (Homo sapiens, UniProt P15498+Q96SW2) gives Dmax = 98

CN1CC(=O)N(c2ccc(-c3cccc(C4CCC(=O)NC4=O)c3Cl)cc2)c2cnccc21 (stereo not drawn) [Compound 334] on VAV1 (Homo sapiens, UniProt P15498+Q96SW2) gives Dmax = 93.5

O=C1CCC(c2cccc(-c3ccc(CN4CCC5CC5C4=O)cc3)c2Cl)C(=O)N1 (stereo not drawn) [Compound 283] on VAV1 (Homo sapiens, UniProt P15498+Q96SW2) gives Dmax = 93.3

O=C1CCC(c2cccc(-c3ccc(N4CCC5CC5C4=O)cc3)c2Cl)C(=O)N1 (stereo not drawn) [Compound 312] on VAV1 (Homo sapiens, UniProt P15498+Q96SW2) gives Dmax = 96.1

O=C1CCC(c2cccc(-c3ccc(OCC4CCOC4)cc3)c2Cl)C(=O)N1 (stereo not drawn) [Compound 141] on VAV1 (Homo sapiens, UniProt P15498+Q96SW2) gives Dmax = 87.6

CC1Oc2ccncc2N(Cc2ccc(-c3cccc(C4CCC(=O)NC4=O)c3Cl)cc2)C1=O (stereo not drawn) [Compound 254] on VAV1 (Homo sapiens, UniProt P15498+Q96SW2) gives Dmax = 96.2
